- Tested on: hTERT-HMEC
- Experiment notes: percentage of EdU-negative (G0-arrested) nuclei per well, 72 h; higher = more G0 arrest;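 further: secreted proteins added to cultured cells, EdU pulse at the end, nuclei found by Hoechst imaging, EdU status from nuclear versus surrounding ring intensity ratio, PBS as neutral control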
- Run parameters: protein concentration 0.0225 µM; reference: sequence is the full UniProt precursor, the tested protein was the secreted form or ectodomain
Metric name: percentage of EdU-negative (%)
Record the value in %, omitting the unit from your answer.

Sample "MRTADREARPGLPSLLLLLLAGAGLSAASPPAAPRFNVSLDSVPELRWLPVLRHYDLDLVRAAMAQVIGDRVPKWVHVLIGKVVLELERFLPQPFTGEIRGMCDFMNLSLADCLLVNLAYESSVFCTSIVAQDSRGHIYHGRNLDYPFGNVLRKLTVDVQFLKNGQIAFTGTTFIGYVGLWTGQSPHKFTVSGDERDKGWWWENAIAALFRRHIPVSWLIRATLSESENFEAAVGKLAKTPLIADVYYIVGGTSPREGVVITRNRDGPADIWPLDPLNGAWFRVETNYDHWKPAPKEDDRRTSAIKALNATGQANLSLEALFQILSVVPVYNNFTIYTTVMSAGSPDKYMTRIRNPSRK" — what was its percentage of EdU-negative?
5.28

====

- Test system: hTERT-HMEC
- Experiment notes: percentage of EdU-negative (G0-arrested) nuclei per well, 72 h; higher = more G0 arrest
- Run parameters: protein concentration 0.0225 µM; reference: sequence is the full UniProt precursor, the tested protein was the secreted form or ectodomain
Metric name: percentage of EdU-negative
For clarity, give the value followed by its unit.

# get_value(readout='percentage of EdU-negative', item= "MLVRRGARAGPRMPRGWTALCLLSLLPSGFMSLDNNGTATPELPTQGTFSNVSTNVSYQETTTPSTLGSTSLHPVSQHGNEATTNITETTVKFTSTSVITSVYGNTNSSVQSQTSVISTVFTTPANVSTPETTLKPSLSPGNVSDLSTTSTSLATSPTKPYTSSSPILSDIKAEIKCSGIREVKLTQGICLEQNKTSSCAEFKKDRGEGLARVLCGEEQADADAGAQVCSLLLAQSEVRPQCLLLVLANRTEISSKLQLMKKHQSDLKKLGILDFTEQDVASHQSYSQKTLIALVTSGALLAVLGITGYFLMNRRSWSPTGERLGEDPYYTENGGGQGYSSGPGTSPEAQGKASVNRGAQENGTGQATSRNGHSARQHVVADTEL" )
5.14%

====

- Test system: MCF7
- Experiment notes: percentage of EdU-negative (G0-arrested) nuclei per well, 72 h; higher = more G0 arrest
- Run parameters: protein concentration 0.0225 µM; reference: sequence is the full UniProt precursor, the tested protein was the secreted form or ectodomain
Metric name: percentage of EdU-negative

MGHRFLRGLLTLLLPPPPLYTRHRMLGPESVPPPKRSRSKLMAPPRIGTHNGTFHCDEALACALLRLLPEYRDAEIVRTRDPEKLASCDIVVDVGGEYDPRRHRYDHHQRSFTETMSSLSPGKPWQTKLSSAGLIYLHFGHKLLAQLLGTSEEDSMVGTLYDKMYENFVEEVDAVDNGISQWAEGEPRYALTTTLSARVARLNPTWNHPDQDTEAGFKRAMDLVQEEFLQRLDFYQHSWLPARALVEEALAQRFQVDPSGEIVELAKGACPWKEHLYHLESGLSPPVAIFFVIYTDQAGQWRIQCVPKEPHSFQSRLPLPEPWRGLRDEALDQVSGIPGCIFVHASGFIGGHRTREGALSMARATLAQRSYLPQIS [Q9HB07] = 26.7%

Now for the sequence whose percentage of EdU-negative we want.
Would you mind telling me what percentage of EdU-negative value was observed for "MSRGLQLLLLSCAYSLAPATPEVKVACSEDVDLPCTAPWDPQVPYTVSWVKLLEGGEERMETPQEDHLRGQHYHQKGQNGSFDAPNERPYSLKIRNTTSCNSGTYRCTLQDPDGQRNLSGKVILRVTGCPAQRKEETFKKYRAEIVLLLALVIFYLTLIIFTCKFARLQSIFPDFSKAGMERAFLPVTSPNKHLGLVTPHKTELV" ?
25.6%

====

- Tested on: MCF7
- Experiment notes: percentage of EdU-negative (G0-arrested) nuclei per well, 72 h; higher = more G0 arrest
- Run parameters: protein concentration 0.357143 µM; reference: sequence is the full UniProt precursor, the tested protein was the secreted form or ectodomain
Here the recorded percentage of EdU-negative is given for each entry.

Some solved entries appear below for comparison.
MLGIWTLLPLVLTSVARLSSKSVNAQVTDINSKGLELRKTVTTVETQNLEGLHHDGQFCHKPCPPGERKARDCTVNGDEPDCVPCQEGKEYTDKAHFSSKCRRCRLCDEGHGLEVEINCTRTQNTKCRCKPNFFCNSTVCEHCDPCTKCEHGIIKECTLTSNTKCKEEGSRSNLGWLCLLLLPIPLIVWVKRKEVQKTCRKHRKENQGSHESPTLNPETVAINLSDVDLSKYITTIAGVMTLSQVKGFVRKNGVNEAKIDEIKNDNVQDTAEQKVQLLRNWHQLHGKKEAYDTLIKDLKKANLCTLAEKIQTIILKDITSDSENSNFRNEIQSLV = 26.6%
MLTTLLPILLLSGWAFCSQDASDGLQRLHMLQISYFRDPYHVWYQGNASLGGHLTHVLEGPDTNTTIIQLQPLQEPESWARTQSGLQSYLLQFHGLVRLVHQERTLAFPLTIRCFLGCELPPEGSRAHVFFEVAVNGSSFVSFRPERALWQADTQVTSGVVTFTLQQLNAYNRTRYELREFLEDTCVQYVQKHISAENTKGSQTSRSYTSLVLGVLVGSFIIAGVAVGIFLCTGGRRC [Q9UNN8] = 25.3%
MTPPERLFLPRVCGTTLHLLLLGLLLVLLPGAQGLPGVGLTPSAAQTARQHPKMHLAHSTLKPAAHLIGDPSKQNSLLWRANTDRAFLQDGFSLSNNSLLVPTSGIYFVYSQVVFSGKAYSPKATSSPLYLAHEVQLFSSQYPFHVPLLSSQKMVYPGLQEPWLHSMYHGAAFQLTQGDQLSTHTDGIPHLVLSPSTVFFGAFAL = 42.8%

Could you share what percentage of EdU-negative was measured for "MAQTNSFFMLISSLMFLSLSQGQESQTELPNPRISCPEGTNAYRSYCYYFNEDPETWVDADLYCQNMNSGNLVSVLTQAEGAFVASLIKESSTDDSNVWIGLHDPKKNRRWHWSSGSLVSYKSWDTGSPSSANAGYCASLTSCSGFKKWKDESCEKKFSFVCKFKN" , tested on MCF7?
24.6%

Reported percentage of EdU-negative for MCF7, given "MKVSVAALSCLMLVAVLGSQAQFTNDAETELMMSKLPLENPVVLNSFHFAADCCTSYISQSIPCSLMKSYFETSSECSKPGVIFLTKKGRQVCAKPSGPGVQDCMKKLKPYSI" ?
25.2%

Lab note: need percentage of EdU-negative for "MGPLSAPPCTEHIKWKGLLVTASLLNFWNLPTTAQVTIEAQPPKVSEGKDVLLLVHNLPQNLTGYIWYKGQIRDLYHYITSYVVDGQIIIYGPAYSGRETAYSNASLLIQNVTREDAGSYTLHIIKRGDGTRGVTGYFTFTLYLETPKPSISSSNLNPREAMETVILTCDPETPDTSYQWWMNGQSLPMTHRFQLSETNRTLFLFGVTKYTAGPYECEIRNSGSASRSDPVTLNLLHGPDLPRIHPSYTNYRSGDNLYLSCFANSNPPAQYSWTINGKFQQSGQNLFIPQITTKHSGLYVCSVRNSATGEESSTSLTVKVSASTRIGLLPLLNPT" on MCF7, anyone have it?
25.4%

====

- System: hTERT-HMEC
- Experiment notes: percentage of EdU-negative (G0-arrested) nuclei per well, 72 h; higher = more G0 arrest
- Run parameters: protein concentration 0.225 µM; reference: sequence is the full UniProt precursor, the tested protein was the secreted form or ectodomain
Record t whenever percentage of EdU-negative is at 6% or higher; record f when lower.

The following sequences have reported results that may help.
MALRRPPRLRLCARLPDFFLLLLFRGCLIGAVNLKSSNRTPVVQEFESVELSCIITDSQTSDPRIEWKKIQDEQTTYVFFDNKIQGDLAGRAEILGKTSLKIWNVTRRDSALYRCEVVARNDRKEIDEIVIELTVQVKPVTPVCRVPKAVPVGKMATLHCQESEGHPRPHYSWYRNDVPLPTDSRANPRFRNSSFHLNSETGTLVFTAVHKDDSGQYYCIASNDAGSARCEEQEMEVYDLNIGGIIGGVLVVLAVLALITLGICCAYRRGYFINNKQDGESYKNPGKPDGVNYIRTDEEGDFRHKSSFVI [Q9BX67] = f
MRLPGVPLARPALLLLLPLLAPLLGTGAPAELRVRVRLPDGQVTEESLQADSDADSISLELRKPDGTLVSFTADFKKDVKVFRALILGELEKGQSQFQALCFVTQLQHNEIIPSEAMAKLRQKNPRAVRQAEEVRGLEHLHMDVAVNFSQGALLSPHLHNVCAEAVDAIYTRQEDVRFWLEQGVDSSVFEALPKASEQAELPRCRQVGDHGKPCVCRYGLSLAWYPCMLKYCHSRDRPTPYKCGIRSCQKSYSFDFYVPQRQLCLWDEDPYPG [Q86UD1] = t
MRKMNTLLLVSLSFLYLKEVMGLKCNTCIYTEGWKCMAGRGTCIAKENELCSTTAYFRGDKHMYSTHMCKYKCREEESSKRGLLRVTLCCDRNFCNVF [P0C8F1] = t
MAVKKIAIFGATGQTGLTTLAQAVQAGYEVTVLVRDSSRLPSEGPRPAHVVVGDVLQAADVDKTVAGQDAVIVLLGTRNDLSPTTVMSEGARNIVAAMKAHGVDKVVACTSAFLLWDPTKVPPRLQAVTDDHIRMHKVLRESGLKYVAVMPPHIGDQPLTGAYTVTLDGRGPSRVISKHDLGHFMLRCLTTDEYDGHSTYPSHQYQ = f

API: the following record is the query input.
I'd appreciate it if you could say whether "MRLAGPLRIVVLVVSVGVTWIVVSILLGGPGSGFPRIQQLFTSPESSVTAAPRARKYKCGLPQPCPEEHLAFRVVSGAANVIGPKICLEDKMLMSSVKDNVGRGLNIALVNGVSGELIEARAFDMWAGDVNDLLKFIRPLHEGTLVFVASYDDPATKMNEETRKLFSELGSRNAKELAFRDSWVFVGAKGVQNKSPFEQHVKNSKHSNKYEGWPEALEMEGCIPRRSTAS" has percentage of EdU-negative at least equal to 6%.
t
